Origin of the recorded values: PubChem BioAssay AID372

We begin with a simple list: items and their reported inhibition.
experimental-target: Gag-Pol polyprotein (Human immunodeficiency virus type 1 group M subtype B (isolate HXB2))
experiment-notes: RNase H inhibition, HIV 1 Gag Pol polyprotein, FRET biochemical assay, screening (AID 372)
condition-label: HIV-1 RT RNase H, FRET RNA/DNA substrate fluorescence; at 10 µM; active compounds read high
In all, about 100,000 compounds went through this assay and about 770 (0.77%) were called active. The sample holds actives, similar compounds and a random draw of the others, so the mix is not that of the screen.
quantity: inhibition (%)

- Cc1cc([N+](=O)[O-])ccc1NC(=O)c1c(C)c(C)c(C)c(C)c1C: 10
- Clc1ccc(CN2CCN(/N=C/c3ccc(-c4ccccc4)cc3)CC2)cc1: 8
- O=C(O)c1cccc(C(=O)O)c1N(c1ccccc1)c1ccccc1: 40
- COc1ccc(S(=O)(=O)N(CC(=O)Nc2ccc(C(N)=O)cc2)c2ccc(C)cc2)cc1OC: 4
- Cc1ccc(N(CC(=O)O)S(C)(=O)=O)cc1C: 0
